Test Target: Hepatocyte growth factor receptor (Homo sapiens)
Sequence (P08581 whole entry): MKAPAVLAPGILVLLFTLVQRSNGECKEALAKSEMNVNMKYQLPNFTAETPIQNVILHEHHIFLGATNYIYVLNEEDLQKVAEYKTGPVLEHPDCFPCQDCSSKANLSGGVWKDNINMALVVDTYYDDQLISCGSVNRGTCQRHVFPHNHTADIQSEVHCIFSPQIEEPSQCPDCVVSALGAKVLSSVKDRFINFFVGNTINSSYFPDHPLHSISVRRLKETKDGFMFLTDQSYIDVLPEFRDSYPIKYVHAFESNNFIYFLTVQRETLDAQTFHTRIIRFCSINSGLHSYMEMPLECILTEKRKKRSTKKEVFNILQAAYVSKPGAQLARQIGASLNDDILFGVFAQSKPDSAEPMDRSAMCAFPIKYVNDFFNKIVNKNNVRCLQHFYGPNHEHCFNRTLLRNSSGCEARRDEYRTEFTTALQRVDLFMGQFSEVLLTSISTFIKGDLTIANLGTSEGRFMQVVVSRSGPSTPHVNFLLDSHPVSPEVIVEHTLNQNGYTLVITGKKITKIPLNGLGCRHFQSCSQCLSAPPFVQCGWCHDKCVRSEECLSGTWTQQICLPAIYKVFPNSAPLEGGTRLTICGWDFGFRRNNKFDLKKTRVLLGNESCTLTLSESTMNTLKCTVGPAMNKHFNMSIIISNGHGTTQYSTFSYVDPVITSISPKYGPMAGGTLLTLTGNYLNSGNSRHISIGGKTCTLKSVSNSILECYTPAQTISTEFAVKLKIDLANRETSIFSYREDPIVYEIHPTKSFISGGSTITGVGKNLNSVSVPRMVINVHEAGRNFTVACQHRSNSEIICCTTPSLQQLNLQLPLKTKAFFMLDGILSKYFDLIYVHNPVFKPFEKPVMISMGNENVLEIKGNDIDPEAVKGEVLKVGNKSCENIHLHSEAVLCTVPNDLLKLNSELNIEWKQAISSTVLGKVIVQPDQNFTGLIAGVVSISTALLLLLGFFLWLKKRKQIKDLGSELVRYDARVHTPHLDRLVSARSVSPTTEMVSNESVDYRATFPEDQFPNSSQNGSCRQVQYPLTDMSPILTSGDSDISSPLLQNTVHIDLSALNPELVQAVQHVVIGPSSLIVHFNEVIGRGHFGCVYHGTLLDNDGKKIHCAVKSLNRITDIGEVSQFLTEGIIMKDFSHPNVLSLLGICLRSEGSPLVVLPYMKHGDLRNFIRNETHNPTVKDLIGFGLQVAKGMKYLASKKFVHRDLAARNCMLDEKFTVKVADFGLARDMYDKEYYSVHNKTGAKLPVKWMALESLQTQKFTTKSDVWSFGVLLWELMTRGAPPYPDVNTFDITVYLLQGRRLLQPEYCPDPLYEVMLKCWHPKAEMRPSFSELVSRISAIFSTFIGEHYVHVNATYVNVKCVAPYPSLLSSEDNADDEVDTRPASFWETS
Measured Quantity: pIC50
pIC50 here is simply -log10 of the concentration when that concentration is written in mol/L.

Simply: Cn1ccc2c(Oc3ccc(NC(=O)c4cc5cccnc5n(-c5ccc(Cl)cc5)c4=O)cc3F)ncnc21 , Hepatocyte growth factor receptor (Homo sapiens), pIC50 = 5.42

====

Tested on: MCF7
Protocol Notes: Cytotoxicity against human MCF7 cells after 72 hrs by MTT assay
Type: functional, cell-based
Measurement Setup: Homo sapiens, MCF7, 72 h; read-out: IC50
# IC50 values compiled below
State the answer as a number, implicitly in µM.

Check out these entries, answers already filled in.
>>> measured_number("O=C(Nc1ccc(Oc2ncnc3[nH]ccc23)c(F)c1)c1cc2cccnc2n(-c2ccc(Br)cc2F)c1=O")
102
>>> measured_number("Cn1ccc2c(Oc3ccc(NC(=O)c4cc5cccnc5n(-c5ccc(F)cc5)c4=O)cc3F)ncnc21")
11.9

Record COc1ccc(-n2c(=O)c(C(=O)Nc3ccc(Oc4ncnc5c4ccn5C)cc3)cc3cccnc32)cc1 , field IC50: 105

Value of measured IC50 for the entry O=C(Nc1ccc(Oc2ncnc3[nH]ccc23)c(F)c1)c1cc2cccnc2n(-c2ccc(C(F)(F)F)cc2Cl)c1=O : 214
